Assayed Target: Platelet-activating factor acetylhydrolase (Homo sapiens)
Protocol Description: pPAFAH (PLA2G7) enzyme inhibitors, confirmation, biochemical, fluorescence polarization, human (AID 463230);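 note: 0% = enzyme with DMSO and 100% = wells lacking pPAFAH enzyme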
Study Conditions: recombinant pPAFAH, FP-Rh probe fluorescence polarization; at 3.39 µM; stronger effect = higher value
This is one part of the list.
Would you mind telling me the reported inhibition of each entry?
Only the number, expressed in %, is required.

Input line: Please give the documented inhibition of NCCc1ccc(S(=O)(=O)F)cc1
Output line: 71.9

Input line: Please give the documented inhibition of O=C1CC(=O)N(Cc2ccccc2)C(=O)N1CCCCCCN1C(=O)CC(=O)N(Cc2ccccc2)C1=O
Output line: 4.95

Input line: Please give the documented inhibition of O=C1NC(=O)N(c2ccccc2)C(=O)/C1=C/c1ccc([N+](=O)[O-])s1
Output line: 44

Input line: Please give the documented inhibition of COc1ccc(N2C(=O)/C(=C/c3ccco3)C(=O)NC2=S)cc1
Output line: 17.3

* * *

Would you mind telling me the reported inhibition of each entry?
Protocol Description: VP16 transactivation reporter inhibitors, counter-screen for LRH-1 inverse agonist project, cell-based, luminescence, high throughput (AID 651615)
Study Conditions: Gal4-VP16 luciferase reporter cells, at 3.6 µM, stronger effect = higher value
Only the number, expressed in %, is required.

Input line: Please give the documented inhibition of Cc1ccc2c(C)c3ccc4ccccc4c3c[n+]2c1
Output line: 78

Input line: Please give the documented inhibition of O=c1[nH]c(O)c(N=Nc2ccc3c(c2)OCCO3)c(=O)[nH]1
Output line: 9.89

Input line: Please give the documented inhibition of CC(C)N(C(=O)CCl)c1ccccc1
Output line: -6.55

Input line: Please give the documented inhibition of COc1ccc(NS(=O)(=O)c2ccc(OCC(=O)N3CCN(C)CC3)cc2)cc1Cl
Output line: 3.62

Input line: Please give the documented inhibition of O=[N+]([O-])c1cc(F)c(N2CCCCCC2)cc1N1CCNCC1
Output line: 9.46

Input line: Please give the documented inhibition of COc1cc2c(cc1OC)[C@@H]1C(=O)c3ccc4c(c3O[C@@H]1CO2)C[C@H](C(C)C)O4
Output line: 57.4

Input line: Please give the documented inhibition of N#CCCn1cc(C(=O)Nc2ccccc2Br)c(-c2ccc([N+](=O)[O-])cc2)n1
Output line: 1.09

Input line: Please give the documented inhibition of CCC(C)N1C(=O)/C(=C\c2ccc(N3CCCCCC3)cc2)C(=O)NC1=S (stereo not given)
Output line: -2.53

Input line: Please give the documented inhibition of O=c1[nH]c2ccccc2n1C1CCN(C(c2cccc3ccccc23)c2nnnn2-c2ccc3c(c2)OCCO3)CC1 (stereo not given)
Output line: 27.7

Input line: Please give the documented inhibition of COc1ccc(C[C@H]2NC[C@H](O)[C@H]2OC(C)=O)cc1
Output line: 95.9

Input line: Please give the documented inhibition of CCCCn1c(NC(=O)c2ccc(Br)o2)c(C(=O)OCC)c2nc3ccccc3nc21
Output line: 7.64

Input line: Please give the documented inhibition of COc1ccc(-[n+]2c(-c3ccccc3)cc(-c3ccc(C)cc3)cc2-c2ccccc2)cc1
Output line: 98.2

Input line: Please give the documented inhibition of CCC(C)C1NC(=O)C(NC(=O)C(CC(C)C)N(C)C(=O)C2CCCN2C(=O)C(C)O)C(C)OC(=O)C(Cc2ccc(OC)cc2)N(C)C(=O)C2CCCN2C(=O)C(CC(C)C)NC(=O)[C@H](C)C(=O)[C@H](C(C)C)OC(=O)CC1O (stereo not given in full)
Output line: 99

Input line: Please give the documented inhibition of C=C1C(=O)OC2CC(C)C3C=CC(=O)C3(C)C(O)C12 (stereo not given)
Output line: 91.2

Input line: Please give the documented inhibition of CCOC(=O)[C@]12Cc3ccc(C)cc3[C@H]1N(C1CCCCC1)C(=O)c1ccccc12
Output line: 84.1

Input line: Please give the documented inhibition of O=C(Nc1ccc(OC(=O)N2CCCCC2)cc1)N1CCOCC1
Output line: 14.3

Input line: Please give the documented inhibition of CCC1CN2CCc3cc(OC)c(OC)cc3C2CC1CC1NCCc2c1[nH]c1ccc(O)cc21 (stereo not given)
Output line: 98.7

Input line: Please give the documented inhibition of CNC(=O)c1cccn(Cc2ccc(C(F)(F)F)cc2)c1=O
Output line: -78.8

Input line: Please give the documented inhibition of CCN(CC)C(=O)COc1cc(C)cc2oc(=O)c3c(c12)CCCC3
Output line: -18.9

Input line: Please give the documented inhibition of CC1=CC(O)C(O)C2(C)C1CC1OC(=O)CC3C(C)C(O)C(=O)C2C13CO (stereo not given)
Output line: -0.77

* * *

Protocol Description: VP16 transactivation inhibitors, counter-screen for SRC1 inhibitor project, cell-based, luminescence, high throughput (AID 588824)
Study Conditions: cell-based VP16 transactivation luciferase luminescence; at 3.6 µM; stronger effect = higher value
Observed Property: inhibition (%)
Only the number, expressed in %, is required.

Input line: Please give the documented inhibition of CC[n+]1c(/C=C/N(C)c2ccccc2)sc2ccc(Cl)cc21
Output line: 48.8

Input line: Please give the documented inhibition of CCC(C)NC(=O)CCC(=O)OC1O[C@H]2OC3(C)CC[C@H]4[C@H](C)CCC(C1C)C24OO3 (stereo not given in full)
Output line: 82

Input line: Please give the documented inhibition of O=C1CN=C(c2ccc[nH]2)c2cc(Cl)ccc2N1
Output line: 57.5

Input line: Please give the documented inhibition of CCC(C)(C)n1nnnc1CN1CCC(n2c(C)nc3cc(C(F)(F)F)ccc32)CC1
Output line: -2.08

Input line: Please give the documented inhibition of COC(=O)C1=C(c2ccc(-c3ccccc3)c(F)c2)C[C@@H]2CC[C@H]1N2C(=O)NC1CC1
Output line: 25.6

Input line: Please give the documented inhibition of C[C@H]1CCC[C@H](O)CCCCCc2cc(O)cc(O)c2C(=O)O1
Output line: 15.5

Input line: Please give the documented inhibition of C=C1C(=O)[C@@]23C[C@H]4[C@@H]5[C@@]6(C)CCC[C@@]57[C@@H]2[C@@H](O)[C@@H]1C[C@H]3[C@H]7N4C6
Output line: 20.9

Input line: Please give the documented inhibition of CC(=CCOc1ccc2ccc(=O)oc2c1)C1=CC(=O)C(C)(C)O1
Output line: 35.2

Input line: Please give the documented inhibition of CN1CCN(c2cc(N3CCCCCC3)c(F)cc2[N+](=O)[O-])CC1
Output line: -7.21

Input line: Please give the documented inhibition of CC(=NNC(=S)N1CC2CCC(CC2)C1)c1nccs1
Output line: 74.4

Input line: Please give the documented inhibition of Nc1ncnc2c1ccn2[C@@H]1O[C@H](CO)[C@@H](O)[C@H]1O
Output line: 86.8

Input line: Please give the documented inhibition of O=C1C(=O)c2ccccc2-c2ccccc21
Output line: 93.5

Input line: Please give the documented inhibition of COc1ccc(C(c2nnnn2Cc2ccccc2)N2CCC(n3c(=O)[nH]c4ccccc43)CC2)cc1 (stereo not given)
Output line: -11.4

Input line: Please give the documented inhibition of CC1=CC2OC3CC4OC(=O)C=CC=CC(C(C)O)OCC(O)C(C)CC(=O)OCC2(CC1O)C4(C)C31CO1 (stereo not given)
Output line: 97.9

Input line: Please give the documented inhibition of O=C1NC2C(=CC(O)C(O)C2O)c2cc3c(cc21)OCO3 (stereo not given)
Output line: 96.3

Input line: Please give the documented inhibition of O=C(CSC1c2ccccc2-c2ccccc21)N/N=C/c1ccccc1O
Output line: 18

Input line: Please give the documented inhibition of C[C@]12CC[C@H](O)C[C@H]1CC[C@@H]1[C@@H]2C[C@@H](O)[C@]2(C)[C@@H](C3=CC(=O)OC3)CC[C@]12O
Output line: 65.4

Input line: Please give the documented inhibition of CN1CCN(c2ncnc3ccc(Br)cc23)CC1
Output line: 33.4

Input line: Please give the documented inhibition of C=Cc1cc(OC)c2c(c1)c(=O)oc1c2cc(OC)c2c(O)ccc(C3OC(C)C(O)C(C)(O)C3O)c21 (stereo not given)
Output line: 88

Input line: Please give the documented inhibition of CC(=O)OC[C@]12CCC(C)=C[C@H]1O[C@@H]1[C@H](O)[C@@H](OC(C)=O)[C@@]2(C)[C@]12CO2
Output line: 97.8

* * *

Assayed Target: Steroidogenic factor 1 (Homo sapiens)
Protocol Description: SF1 (NR5A1) inverse agonists, counter-screen for LRH-1 inverse agonist project, cell-based, luminescence, high throughput (AID 651614);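 note: cells cotransfected with StAR promoter reporter and SF1 expression vector; 0% = vehicle on cells with receptor and 100% = vehicle on cells lacking receptor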
Study Conditions: cell-based SF1 luciferase reporter, at 3.6 µM, stronger effect = higher value
Would you mind telling me the reported inhibition of each entry?
Only the number, expressed in %, is required.

Input line: Please give the documented inhibition of CCC(C)C1NC(=O)C(NC(=O)C(CC(C)C)N(C)C(=O)C2CCCN2C(=O)C(C)O)C(C)OC(=O)C(Cc2ccc(OC)cc2)N(C)C(=O)C2CCCN2C(=O)C(CC(C)C)NC(=O)[C@H](C)C(=O)[C@H](C(C)C)OC(=O)CC1O (stereo partly drawn)
Output line: 98.4

Input line: Please give the documented inhibition of O=[N+]([O-])c1ccc(N2CCOCC2)c2c1no[n+]2[O-]
Output line: 92.6

Input line: Please give the documented inhibition of N#CC1c2ccccc2-n2nncc2CN1Cc1cc(Cl)cc(Cl)c1 (stereo not drawn)
Output line: 94.1

Input line: Please give the documented inhibition of Cc1nc2c(=O)n(C)c(=O)nc-2n(C)n1
Output line: 83.4

Input line: Please give the documented inhibition of CCOc1ccc(-c2cc(C)[n+](CCc3ccc(OC)c(OC)c3)c(-c3ccc(OCC)cc3)c2)cc1
Output line: 92.3

Input line: Please give the documented inhibition of CC12CCC(O)CC1CCC1C2CCC2(C)C(C3=CC(=O)OC3)CCC12O (stereo not drawn)
Output line: 98.2

Input line: Please give the documented inhibition of CCOC(=O)[C@]12Cc3cc(OC)ccc3[C@H]1N(C1CCCCC1)C(=O)c1ccccc12
Output line: 42.2

Input line: Please give the documented inhibition of CC1OC(OC2C=C3CCC4C(CCC5(C)C(c6ccc(=O)oc6)CCC45O)C3(C)CC2)C(O)C(OC2OC(CO)C(O)C(O)C2O)C1O (stereo not drawn)
Output line: 97.2
